Test system: weaned pigs
Test: Growth promotion test of weaned pigs with additives in creep feed
Format: in vivo, pig (Duroc×Landrace×Large White piglets)
Details: 2000 ppm
From the text: 140 weaned Duroc×Landrace×Large White piglets aged 28 days with similar body weight and further having an average body weight of 7.61 kg were divided into 14 groups, each with 10 pigs. […]
Measurement type: Effect on diarrhea rate of test pigs (in words)

>>> observed("O=P(O)(O)O [phosphoric acid, reference compound]")
"no such effects"
>>> observed("O=C(O)CC(O)(CC(=O)O)C(=O)O [citric acid, reference compound]")
"no such effects"

====

Test system: weaned pigs
Assay: Growth promotion test of weaned pigs with additives in creep feed
Format: in vivo, pig (Duroc×Landrace×Large White piglets)
Conditions: 2000 ppm
Measurement type: Improvement of production performance (in words)

>>> observed("O=P(O)(O)O [phosphoric acid, reference compound]")
"no such effects"
>>> observed("Cc1ccc(C(=O)[O-])cc1.Cc1ccc(C(=O)[O-])cc1.[Ca+2] [calcium p-methyl benzoate]")
"significant dose effect"
>>> observed("Cc1ccc(C(=O)O)cc1 [p-methyl benzoic acid]")
"significant dose effect"
>>> observed("O=C(O)CC(O)(CC(=O)O)C(=O)O [citric acid, reference compound]")
"no such effects"

Reference source for all entries: patent US20170332666A1
